Every entry's value here was drawn from patent US20070207503A1.

- ASSAY_NAME: Form-specific antibody production / specificity of anti-14,15-, 11,12-, 8,9- and 5,6-DHETs
- Type: binding
- STUDY_CONDITIONS: DHET coupled to KLH, goat immunized
RESULT_TYPE: form-specific antibody production

> print(dat)
                                   compound  reported.value
1  CCCCC/C=C\CC(O)C(O)C/C=C\C/C=C\CCCC(=O)O (stereo not shown) [11,12-DHET]      successful
2  CCCCC/C=C\C/C=C\C/C=C\CC(O)C(O)CCCC(=O)O (stereo not shown) [5,6-DHET]          failed
3  CCCCC/C=C\C/C=C\CC(O)C(O)C/C=C\CCCC(=O)O (stereo not shown) [8,9-DHET]          failed
4  CCCCCC(O)C(O)C/C=C\C/C=C\C/C=C\CCCC(=O)O (stereo not shown) [14,15-DHET]      successful
